- Experimental system: T1, cynomolgus galectin-10-His, YRT isoform (cynomolgus)
- T1 construct: not shown: His tag
- T1 chain: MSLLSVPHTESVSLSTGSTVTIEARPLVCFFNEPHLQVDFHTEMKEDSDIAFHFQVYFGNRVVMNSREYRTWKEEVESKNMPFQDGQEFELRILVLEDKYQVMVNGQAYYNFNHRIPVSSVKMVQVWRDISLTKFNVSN
- Protocol summary: ELISA, Gal10-His coated at 1 ug/mL, VHH titrated, anti-Myc-HRP
Form field: Bmax (OD values) (one value per entry).
Give the number first and the unit second.

// below: answered binders
VHH clone 13C04 (VHH, Purified VHH-Myc-His from E. coli; not shown: Myc and His tags of the phagemid vector) VHH: ELQVVESGGGLVQAGGSLRLSCAASGRTFSTYSMAWFRQAPGKEREFVAAITRSGGNTYADSVKGRFTISRDNAKNTVTLQMNSLKPEDTAAYHCAAGGTYSFVPRSYNYWGQGTQVTVSS    2.5 OD
VHH clone 13E07 (VHH, Purified VHH-Myc-His from E. coli; not shown: Myc and His tags of the phagemid vector) VHH: ELQVVESGGGLVQAGDSLRLSCAVSGRTFSSYHMMWFRQAPGKEREFVAAIAWRGGTYCANSVKGRCTISRDNAKDTVYLQMNSLKPEDTAVYFCAASLRYVFDPSAMDYWGKGTLVTVSS    2.4 OD
VHH clone 14F10 (VHH, Purified VHH-Myc-His from E. coli; not shown: Myc and His tags of the phagemid vector) VHH: EVQLVESGGGLVQAGDSLRLSCAASGRTFSGYAVGWFRQAPGKEREFVTIISWNGGTHYADSVKGRFAISRDNAKNTVYLQMNNLKPEDTAVYYCAVSPKYYFSPETYNYWGQGTQVTVSS    3 OD

Please examine the following record next.
Report Bmax (OD values), nothing else, for this binder: VHH clone 14E10 (VHH, Purified VHH-Myc-His from E. coli; not shown: Myc and His tags of the phagemid vector) VHH: ELQLVESGGGLVQAGGSLRLSCAASEGTFRPYAMGWFRQAPRKEREFVAVISLSGAYTYNVNAVKGRFTISRDNAKNTVYLQMNSLTPEDTAIYYCGASRTYYRTDESTYEYWGQGTQVTVSS
2.7 OD
